Every entry's value here was drawn from patent US10093630B2.

measurement target: MAGL (Mus musculus)
Construct: Proteomes (mouse brain membrane fraction or cell lysates); from tissue; host or cells: mouse brain membrane fraction (or cell lysates, not specified)
Sequence (O35678 whole entry): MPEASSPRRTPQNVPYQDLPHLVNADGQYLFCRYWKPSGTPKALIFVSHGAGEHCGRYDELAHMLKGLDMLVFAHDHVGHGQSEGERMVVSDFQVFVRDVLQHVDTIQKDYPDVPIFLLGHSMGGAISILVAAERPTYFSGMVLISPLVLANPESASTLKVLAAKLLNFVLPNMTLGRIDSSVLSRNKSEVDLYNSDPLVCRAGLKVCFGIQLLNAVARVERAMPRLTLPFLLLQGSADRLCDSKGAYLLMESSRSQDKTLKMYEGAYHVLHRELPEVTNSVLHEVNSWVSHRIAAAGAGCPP
experimental protocol: In vitro competitive activity-based protein profiling (gel-based, FP-Rh or HT-01 probe)
Type: biochemical
test context: 10 μM inhibitor
reported endpoint: inhibition at 10 µM

molecule O=C(N1CCN(Cc2ccccc2)CC1)n1cc(Cl)cn1 , inhibition at 10 µM observed: > 75%

molecule Cc1cnn(C(=O)N(C)CCN(C)Cc2ccccc2)c1 , inhibition at 10 µM observed: < 25%

molecule O=C(N1CCCCC1)n1cc(Cl)cn1 , inhibition at 10 µM observed: > 75%

We next turn to a different molecule, shown below.
molecule O=C(c1cnn(C(=O)N2CCN(Cc3nccs3)CC2)c1)N1CCOCC1 , inhibition at 10 µM observed: < 25%
